Measured values drawn from patent EP4656642A1 for this set.

molecular target: ERα (Homo sapiens); assay: Degradation of ERα in T-47D cells (immunoblotting, 4 h); assay type: cell-based; design: host or cells: T-47D; conditions: 1nM compound
Sequence (P03372 whole entry): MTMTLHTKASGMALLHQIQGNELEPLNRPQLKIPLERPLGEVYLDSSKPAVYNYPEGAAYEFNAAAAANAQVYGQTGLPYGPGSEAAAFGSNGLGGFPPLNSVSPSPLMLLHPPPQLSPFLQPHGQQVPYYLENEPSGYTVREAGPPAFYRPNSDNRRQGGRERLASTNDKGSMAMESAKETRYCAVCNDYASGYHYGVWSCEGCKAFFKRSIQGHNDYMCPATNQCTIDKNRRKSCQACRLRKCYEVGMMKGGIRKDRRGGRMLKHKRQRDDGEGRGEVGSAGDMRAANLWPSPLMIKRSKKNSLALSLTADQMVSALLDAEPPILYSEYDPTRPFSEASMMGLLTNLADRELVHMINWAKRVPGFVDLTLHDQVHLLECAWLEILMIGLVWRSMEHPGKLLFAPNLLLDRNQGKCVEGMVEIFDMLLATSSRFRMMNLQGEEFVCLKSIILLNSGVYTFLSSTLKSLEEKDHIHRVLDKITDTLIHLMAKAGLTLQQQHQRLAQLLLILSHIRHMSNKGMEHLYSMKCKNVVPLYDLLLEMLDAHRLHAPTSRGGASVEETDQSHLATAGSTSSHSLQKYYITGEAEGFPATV
Label Yes for high-side Degradation rate (%) of ERα in T-47D cells (at or above 40%) and No for low-side Degradation rate (%) of ERα in T-47D cells (below it).

{"compound": "O=C1CCC(N2Cc3c(ccc4c3OCC43CCN(C4CCN(C(=O)C5CCC6(CC5)CN(c5ccc([C@@H]7c8ccc(O)cc8CC[C@@H]7c7ccccc7)cc5)C6)CC4)CC3)C2=O)C(=O)N1 (stereo partly drawn) [A84]", "group": "Yes"}
{"compound": "O=C1CCC(N2C(=O)c3ccc4c(c3C2=O)OCC42CCN(C3CC4(CCN(c5ccc([C@@H]6c7ccc(O)cc7CC[C@@H]6c6ccccc6)cc5)CC4)C3)CC2)C(=O)N1 (stereo partly drawn) [L17]", "group": "No"}
{"compound": "C[C@@H]1Cc2c(ccc3[nH]ncc23)[C@@H](c2ccc(N3CCN(C[C@H]4CC[C@H](C(=O)N5CCC6(CC5)COc5c6ccc6c5CN(C5CCC(=O)NC5=O)C6=O)CC4)CC3)cn2)N1CC(F)(F)F (stereo partly drawn) [A117]", "group": "Yes"}
{"compound": "O=C1CCC(N2Cc3c(ccc4c3OCC43CCN(C4CN(C(=O)C5CCN(c6ccc([C@@H]7c8ccc(O)cc8CC[C@@H]7c7ccccc7)cc6)CC5)C4)CC3)C2=O)C(=O)N1 (stereo partly drawn) [D4]", "group": "Yes"}
{"compound": "O=C1CCC(N2Cc3c(ccc4c3OCC43CCN(C4CCN(C5CC6(CCN(c7ccc([C@@H]8c9ccc(O)cc9CC[C@@H]8c8ccccc8)cc7)CC6)C5)[C@@H](C(=O)N5CCC(F)(F)CC5)C4)CC3)C2=O)C(=O)N1 (stereo partly drawn) [A99]", "group": "Yes"}
{"compound": "O=C1CCC(N2Cc3c(ccc4c3OCC43CCN(C4CN(C5CCN(c6ccc([C@@H]7c8ccc(O)cc8CC[C@@H]7c7ccccc7)cc6)CC5)C4)CC3)C2=O)C(=O)N1 (stereo partly drawn) [A58]", "group": "No"}
{"compound": "O=C1CCC(N2Cc3cc4c(cc3C2=O)CCC2(CN(C3CN(C5CCN(c6ccc([C@@H]7c8ccc(O)cc8CC[C@@H]7c7ccccc7)cc6)CC5)C3)C2)O4)C(=O)N1 (stereo partly drawn) [A57]", "group": "No"}
{"compound": "O=C1CCC(N2Cc3cc4c(cc3C2=O)CCC2(CN(CC3CCC5(CC3)CN(c3ccc([C@@H]6c7ccc(O)cc7CC[C@@H]6c6ccccc6)cc3)C5)C2)O4)C(=O)N1 (stereo partly drawn) [M15]", "group": "No"}
{"compound": "O=C1CCC(N2Cc3cc4c(cc3C2=O)CCC2(CN(CC3CC5(CCN(c6ccc([C@@H]7c8ccc(O)cc8CC[C@@H]7c7ccccc7)cc6)CC5)C3)C2)O4)C(=O)N1 (stereo partly drawn) [B12]", "group": "No"}
{"compound": "O=C1CCC(N2Cc3c(ccc4c3OCC43CCN(C(=O)C4CC5(CCN(c6ccc([C@@H]7c8ccc(O)cc8CC[C@@H]7c7ccccc7)cc6)CC5)C4)CC3)C2=O)C(=O)N1 (stereo partly drawn) [A86]", "group": "Yes"}
{"compound": "O=C1CCC(N2Cc3c(ccc4c3OCC43CCN(C4CCN(C5CC6(CCN(c7ccc([C@@H]8c9ccc(O)cc9CC[C@@H]8c8ccccc8)cc7)CC6)C5)[C@@H](C(=O)N5CC(F)(F)C5)C4)CC3)C2=O)C(=O)N1 (stereo partly drawn) [A98]", "group": "Yes"}
{"compound": "C[C@@H]1Cc2c([nH]c3ccccc23)[C@@H](c2c(F)cc(N3CCC4(CCN(C(=O)CN5CCC6(CC5)COc5c6ccc6c5CN(C5CCC(=O)NC5=O)C6=O)CC4)CC3)cc2F)N1CC(F)F (stereo partly drawn) [A118]", "group": "No"}
{"compound": "C[C@@H]1Cc2cc(O)ccc2C(c2c(F)cc(N3CCN(C[C@H]4CC[C@H](C(=O)N5CCC6(CC5)COc5c6ccc6c5CN(C5CCC(=O)NC5=O)C6=O)CC4)CC3)cc2F)N1CC(F)F (stereo partly drawn) [I6]", "group": "Yes"}
{"compound": "N#CC1(CN2CCC3(CC2)COc2c3ccc3c2CN(C2CCC(=O)NC2=O)C3=O)CCN(CC2CCN(c3ccc([C@@H]4c5ccc(O)cc5CC[C@@H]4c4ccccc4)cc3)CC2)CC1 (stereo partly drawn) [N7]", "group": "Yes"}
{"compound": "O=C1CCC(N2Cc3c(ccc4c3OCC43CCN(CC4CCN(C5CCN(c6ccc([C@@H]7c8ccc(O)cc8CC[C@@H]7c7ccccc7)cc6)CC5)CC4)CC3)C2=O)C(=O)N1 (stereo partly drawn) [K6]", "group": "No"}
{"compound": "O=C1CCC(N2Cc3c(ccc4c3OCC43CCN(C4CC5(C4)CN(c4ccc([C@@H]6c7ccc(O)cc7CC[C@@H]6c6ccccc6)cc4)C5)CC3)C2=O)C(=O)N1 (stereo partly drawn) [L18]", "group": "No"}
{"compound": "C[C@@H]1Cc2c([nH]c3ccccc23)[C@@H](c2c(F)cc(N3CCN(C[C@H]4CC[C@H](C(=O)N5CCC6(CC5)COc5c6ccc6c5CN(C5CCC(=O)NC5=O)C6=O)CC4)CC3)cc2F)N1CC(F)F (stereo partly drawn) [A114]", "group": "Yes"}
{"compound": "O=C1CCC(N2Cc3c(ccc4c3OCC43CCN(CCNC(=O)C4CCC5(CC4)CCN(c4ccc([C@@H]6c7ccc(O)cc7CC[C@@H]6c6ccccc6)cc4)CC5)CC3)C2=O)C(=O)N1 (stereo partly drawn) [B19]", "group": "Yes"}
{"compound": "N#CC1(C(=O)N2CCC(N3CCC4(CC3)COc3c4ccc4c3CN(C3CCC(=O)NC3=O)C4=O)CC2)CCN(c2ccc([C@@H]3c4ccc(O)cc4CC[C@@H]3c3ccccc3)cc2)CC1 (stereo partly drawn) [K35]", "group": "Yes"}
{"compound": "O=C1CCC(N2Cc3c(ccc4c3OCC43CCN(C4CCC(Oc5ccc([C@@H]6c7ccc(O)cc7CC[C@@H]6c6ccccc6)cc5)CC4)CC3)C2=O)C(=O)N1 (stereo partly drawn) [H12]", "group": "No"}
{"compound": "O=C1CCC(N2Cc3c(ccc4c3OCC43CCN(C4C5CCC4CN(C(=O)C4CCN(c6ccc([C@@H]7c8ccc(O)cc8CC[C@@H]7c7ccccc7)cc6)CC4)C5)CC3)C2=O)C(=O)N1 (stereo partly drawn) [J4]", "group": "No"}
